# procedure_details: Aqueous solubility of L-thyroxine sodium salt in the presence of cyclodextrins
# Assay type: physicochemical
# assay_conditions: water with heptakis-2,6-di-o-methyl-β-cyclodextrin; heptakis-2,6-di-O-methyl-β-cyclodextrin 3.0%
Counter-ions that a name gives are not always drawn.
endpoint_name: solubility (µg/mL)
# number only, unit µg/mL dropped from output

solubility reading for N[C@@H](Cc1cc(I)c(Oc2cc(I)c(O)c(I)c2)c(I)c1)C(=O)O [L-thyroxine sodium salt, Levothyroxine sodium] : 5500

---

# procedure_details: Aqueous solubility of L-thyroxine sodium salt in the presence of cyclodextrins
# Assay type: physicochemical
# assay_conditions: water, 5.0% maltosyl-β-cyclodextrin, Maltosyl-β-cyclodextrin 5.0%
Structures can show the parent of a compound that is named as a salt.
endpoint_name: solubility

solubility reading for N[C@@H](Cc1cc(I)c(Oc2cc(I)c(O)c(I)c2)c(I)c1)C(=O)O [L-thyroxine sodium salt, Levothyroxine sodium] : 2320 µg/mL
